Hi there, I'd appreciate the recorded Emax for every entry that follows.
Biological target: recombinant human PKM2 (Homo sapiens)
Construct: His (N); purchased R&D Systems
Sequence (P14618 2-531 limits assumed): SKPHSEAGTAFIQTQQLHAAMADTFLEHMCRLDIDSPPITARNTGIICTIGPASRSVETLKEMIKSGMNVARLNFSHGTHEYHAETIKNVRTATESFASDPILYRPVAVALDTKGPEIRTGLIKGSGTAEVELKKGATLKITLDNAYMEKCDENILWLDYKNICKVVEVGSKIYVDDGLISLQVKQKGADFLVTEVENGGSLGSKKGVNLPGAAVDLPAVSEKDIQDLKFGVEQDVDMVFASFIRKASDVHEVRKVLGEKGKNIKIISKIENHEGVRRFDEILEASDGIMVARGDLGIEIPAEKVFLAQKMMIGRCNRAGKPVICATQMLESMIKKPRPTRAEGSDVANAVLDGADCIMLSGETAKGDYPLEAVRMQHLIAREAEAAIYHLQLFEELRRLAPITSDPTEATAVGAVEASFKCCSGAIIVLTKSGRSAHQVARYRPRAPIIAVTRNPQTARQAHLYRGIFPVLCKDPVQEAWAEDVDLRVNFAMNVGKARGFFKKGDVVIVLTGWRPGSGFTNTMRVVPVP
Experiment: Human PKM2 activation assay (Kinase-Glo Plus luminescent detection of generated ATP)
Format: biochemical
Conditions: percentage activation normalised to DMSO vehicle (LOW) and 5 μM TEPP-46 (HIGH); read-out: hPKM2 Emax
Give bare numbers, in %.

A selection of reference data follows.
Please report the recorded Emax for "Cc1[nH]nc(Cn2ncc3cc(S(=O)(=O)c4cnn(C(F)F)c4)ccc3c2=O)c1Cl" .
92.5

Please report the recorded Emax for "Cc1cc2nc(Cn3ncc4cc(S(=O)(=O)c5cn[nH]c5)ccc4c3=O)ccc2o1" .
113

Please report the recorded Emax for CC(c1cccnc1)n1ncc2cc(S(=O)(=O)c3ccccc3)ccc2c1=O (stereo not shown) .
75.5

Please report the recorded Emax for "COc1ccc(Cn2ncc3cc(S(=O)(=O)c4ccc(F)cc4)ccc3c2=O)cn1" .
98.8

Please report the recorded Emax for "O=c1c2ccc(S(=O)(=O)c3ccccc3)cc2cnn1Cc1ccccc1CO" .
90.7

Please report the recorded Emax for "O=c1c2ccc(S(=O)(=O)c3ccc4occc4n3)cc2cnn1Cc1ccn(C2CC2)n1" .
95.5

Please report the recorded Emax for "O=c1c2ccc(S(=O)(=O)c3ccc4c(n3)OCCO4)cc2cnn1Cc1cc[nH]n1" .
94.7

Please report the recorded Emax for "Cn1ccc(Cn2ncc3cc(S(=O)(=O)c4ccc(OC(F)(F)F)cc4)ccc3c2=O)n1" .
116

Hi there! I need Emax for each item below, if you can.
1. COc1ccc(S(=O)(=O)c2ccc3c(=O)n(Cc4ccn(C5CC5)n4)ncc3c2)cn1
2. COc1ccc(S(=O)(=O)c2ccc3c(=O)n(Cc4ccnc(O)c4)ncc3c2)cc1

120
92.6

Hi there! I need Emax for each item below, if you can.
1. COc1ccc(Cn2ncc3cc(S(=O)(=O)c4ccc(OC(F)F)cc4)ccc3c2=O)cn1
2. COc1ccc(C(C)n2ncc3cc(S(=O)(=O)c4ccccc4)ccc3c2=O)cn1 (stereo not shown)
3. COc1ccc(S(=O)(=O)c2ccc3c(=O)n(Cc4ccc(OC)nc4)ncc3c2)cc1
4. NC(=O)c1ccc(Cn2ncc3cc(S(=O)(=O)c4ccccc4)ccc3c2=O)o1
5. COc1ccc(S(=O)(=O)c2ccc3c(=O)n(Cc4ccno4)ncc3c2)cc1

1: 77.2; 2: 91.2; 3: 104; 4: 92.2; 5: 83.5

Hi there! I need Emax for each item below, if you can.
1. O=c1c2ccc(S(=O)(=O)c3cc[nH]n3)cc2cnn1Cc1ccc2c(n1)CCO2
2. COc1ccc(F)c(Cn2ncc3cc(S(=O)(=O)c4cn[nH]c4)ccc3c2=O)n1
3. NC(=O)c1c(Cl)cccc1Cn1ncc2cc(S(=O)(=O)c3ccccc3)ccc2c1=O
4. COc1ccc(Cn2ncc3cc(S(=N)(=O)c4ccc(OC(F)F)cc4)ccc3c2=O)cn1 (racemic)

104
106
89.9
102
